Reference source for all entries: patent US20100222396A1

Would you mind telling me the reported Kd of each entry?
- test system: human orexin 2 receptor (hOx2R) (Homo sapiens)
- Construct: expressed in transfected cells
- Sequence (O43614 whole entry): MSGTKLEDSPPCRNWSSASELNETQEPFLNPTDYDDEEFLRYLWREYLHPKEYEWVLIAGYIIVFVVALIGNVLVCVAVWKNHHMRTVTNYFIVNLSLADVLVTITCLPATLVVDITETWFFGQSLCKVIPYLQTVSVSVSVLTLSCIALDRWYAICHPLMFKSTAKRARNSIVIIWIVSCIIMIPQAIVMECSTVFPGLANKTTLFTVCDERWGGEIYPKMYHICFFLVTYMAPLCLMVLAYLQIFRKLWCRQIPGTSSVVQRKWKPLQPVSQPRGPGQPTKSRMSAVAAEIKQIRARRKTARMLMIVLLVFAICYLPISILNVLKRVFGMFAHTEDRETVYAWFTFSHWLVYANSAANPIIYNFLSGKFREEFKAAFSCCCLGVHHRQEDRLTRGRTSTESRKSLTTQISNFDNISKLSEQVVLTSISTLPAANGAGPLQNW
- assay notes: Radioligand binding assay ([125I]orexin A competition), hOx2R
- run conditions: CHO or HEK cell membranes, 1 h room temperature
Give bare numbers, in nM.

Consider the reported Kd for these compounds:
CN(C(=O)c1ccc2occc2c1)[C@H](CCNC(=O)c1ccccn1)Cc1ccccc1 : 168
CN(C(=O)c1ccc2[nH]ccc2c1)[C@H](CCNC(=O)c1ccccn1)Cc1ccccc1 : 41
COc1ccc(C(=O)N(C)[C@H](CCNC(=O)c2ccccn2)Cc2ccccc2)cc1 : 688
CCCCC(=O)NCCC(Cc1ccccc1)N(C)C(=O)c1cc(C(F)(F)F)cc(C(F)(F)F)c1 (stereo not shown) : 610
CN(C(=O)c1ccc2c(c1)CCO2)[C@H](CCNC(=O)c1ccccn1)Cc1ccccc1 : 374
CN(C(=O)c1ccc2ccccc2c1)[C@@H](CCNC(=O)c1ccccn1)Cc1ccccc1 : 607

# batch: return Kd for each of the 6 compounds below
1. CN(C(=O)c1cccc2ccccc12)[C@H](CCNC(=O)c1ccccn1)Cc1ccccc1
2. COc1cccc(C(=O)N(C)[C@H](CCNC(=O)c2nc3ccccc3n2C)Cc2ccccc2)c1
3. CN(C(=O)c1ccc2c(c1)OCO2)[C@H](CCNC(=O)c1cccn1C)Cc1ccccc1
4. CN(C(=O)c1cccc2c1OCO2)[C@H](CCNC(=O)c1nc2ccccc2n1C)Cc1ccccc1
5. CN(C(=O)c1ccc2c(ccn2C)c1)[C@H](CCNC(=O)c1ccccn1)Cc1ccccc1
6. CN(C(=O)c1ccccc1)[C@H](CCNC(=O)c1ccccn1)Cc1ccccc1

Result ::
1: 20; 2: 30; 3: 4; 4: 131; 5: 1330; 6: 479

# batch: return Kd for each of the 4 compounds below
1. CN(C(=O)c1ccc2ccccc2c1)[C@H](CCNC(=O)c1ccccn1)Cc1ccc(F)cc1
2. CN(C(=O)c1ccccc1)[C@H](CCNC(=O)c1ccnc2ccccc12)Cc1ccccc1
3. CN(C(=O)c1ccccc1)[C@H](CCNC(=O)c1ccccn1)Cc1ccc(Cl)cc1
4. COc1ccc(C(=O)N(C)[C@H](CCNC(=O)c2nc3ccccc3n2C)Cc2ccccc2)cc1OC

Result ::
[3430, 4970, 8310, 98]
